- Assay Remarks: n-Octanol-PBS partition coefficient (logD7.4)
- Assay type: physicochemical
- Experimental Context: 18F-labeled ligand; n-octanol/PBS pH=7.4; mean ± SD (n = 5)
- Procedure: Approx. 0.5 MBq of the ^18F-labeled SiFA-PSMA ligand were added into a test tube containing n-octanol (500 μL) and PBS (500 μL, pH=7.4). After vigorously shaking the two-phase mixture for 3 min at rt, the test tube was centrifuged at 9.000 rpm for 5 min to achieve quantitative phase separation. Finally, 150 μL of each layer were pipetted off and measured for activity using a gamma counter. […]
*1 amine or outer side, *2 acyl side, *3 side chain or, on linkers, in order; H or OH if unused. Where a SMILES comes first, the peptide text is derived from it. Side-chain parts run from the residue outwards. [ ]: non-standard residue; d: D form. The star is where a group is joined. X1 = O=C(O)CC[C@H](NC(=O)N[C@@H](CCC(=O)N[C@H](CCCN*)C(=O)O)C(=O)O)C(=O)O; Benzoyl(4-SiFtBu2) = CC(C)(C)[Si](F)(c1ccc(C(=O)*)cc1)C(C)(C)C; Suc = O=C(CCC(=O)[*:2])[*:1]; dDap = NC[C@@H](N)C(=O)O
Recorded logD7.4 values for a group of molecules are listed next.
Observable: logD7.4

[[record]]
molecule = "CC(C)(C)[Si](F)(c1ccc(C(=O)NC[C@@H](NC(=O)[C@@H](Cc2ccccc2)NC(=O)[C@@H](CCC(=O)O)NC(=O)[C@H](N)CCC(=O)O)C(=O)N[C@H](CCCCNC(=O)CCC(=O)NCCC[C@@H](NC(=O)CC[C@H](NC(=O)N[C@@H](CCC(=O)O)C(=O)O)C(=O)O)C(=O)O)C(=O)O)cc1)C(C)(C)C [SiFA-PSMA ligand 03 i] (H-[dE][dE][dF][dDap](Benzoyl(4-SiFtBu2))[dK]([Suc-X1])-OH)"
result_value = "−2.30"

[[record]]
molecule = "CC(C)(C)[Si](F)(c1ccc(C(=O)NC[C@@H](NC(=O)[C@@H](CCC(=O)O)NC(=O)[C@@H](CCC(=O)O)NC(=O)[C@H](N)CCC(=O)O)C(=O)N[C@H](CCCCNC(=O)CCC(=O)NCCC[C@@H](NC(=O)CC[C@H](NC(=O)N[C@@H](CCC(=O)O)C(=O)O)C(=O)O)C(=O)O)C(=O)O)cc1)C(C)(C)C [SiFA-PSMA ligand 03 b] (H-[dE][dE][dE][dDap](Benzoyl(4-SiFtBu2))[dK]([Suc-X1])-OH)"
result_value = "−3.85"

[[record]]
molecule = "C[C@H](O)[C@@H](NC(=O)[C@@H](CCC(=O)O)NC(=O)[C@H](N)CCC(=O)O)C(=O)N[C@H](CNC(=O)c1ccc([Si](F)(C(C)(C)C)C(C)(C)C)cc1)C(=O)N[C@H](CCCCNC(=O)CCC(=O)NCCC[C@@H](NC(=O)CC[C@H](NC(=O)N[C@@H](CCC(=O)O)C(=O)O)C(=O)O)C(=O)O)C(=O)O [SiFA-PSMA ligand 03 h] (H-[dE][dE][dT][dDap](Benzoyl(4-SiFtBu2))[dK]([Suc-X1])-OH)"
result_value = "−3.66"

[[record]]
molecule = "CC(C)(C)[Si](F)(c1ccc(C(=O)NC[C@@H](NC(=O)CCCCCNC(=O)CC[C@H](NC(=O)N[C@@H](CCC(=O)O)C(=O)O)C(=O)O)C(=O)N[C@H](CCCCNC(=O)CCC(=O)NCCC[C@@H](NC(=O)CC[C@H](NC(=O)N[C@@H](CCC(=O)O)C(=O)O)C(=O)O)C(=O)O)C(=O)O)cc1)C(C)(C)C"
result_value = "−3.27"


###

- Test System: human serum albumin (HSA) (Homo sapiens)
- Construct: purchased H13H-2433
- Sequence (P02768 25-609): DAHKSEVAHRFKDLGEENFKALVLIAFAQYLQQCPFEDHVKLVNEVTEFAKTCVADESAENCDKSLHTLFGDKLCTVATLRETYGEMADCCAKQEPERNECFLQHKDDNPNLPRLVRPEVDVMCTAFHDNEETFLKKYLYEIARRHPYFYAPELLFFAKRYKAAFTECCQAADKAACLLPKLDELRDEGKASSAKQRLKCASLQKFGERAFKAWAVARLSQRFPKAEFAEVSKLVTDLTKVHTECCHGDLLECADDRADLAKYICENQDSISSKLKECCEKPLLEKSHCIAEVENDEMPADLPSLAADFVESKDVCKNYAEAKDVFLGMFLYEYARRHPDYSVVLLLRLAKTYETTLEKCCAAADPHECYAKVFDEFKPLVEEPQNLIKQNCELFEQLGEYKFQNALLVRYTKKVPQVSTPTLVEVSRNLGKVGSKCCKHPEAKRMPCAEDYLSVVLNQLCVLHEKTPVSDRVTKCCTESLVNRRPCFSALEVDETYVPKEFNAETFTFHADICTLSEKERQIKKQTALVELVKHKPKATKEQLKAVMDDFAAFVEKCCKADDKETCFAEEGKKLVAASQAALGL
- Assay Remarks: Binding to HSA on a Chiralpak HSA column
- Assay type: in vitro ADME
- Experimental Context: calibration with nine reference substances
Entries and their measured Binding to HSA follow.
Observable: Binding to HSA

[[record]]
structure_smiles_string = "CC(C)(C)[Si](F)(c1ccc(C(=O)NC[C@@H](NC(=O)CCCCCNC(=O)CC[C@H](NC(=O)N[C@@H](CCC(=O)O)C(=O)O)C(=O)O)C(=O)N[C@H](CCCCNC(=O)CCC(=O)NCCC[C@@H](NC(=O)CC[C@H](NC(=O)N[C@@H](CCC(=O)O)C(=O)O)C(=O)O)C(=O)O)C(=O)O)cc1)C(C)(C)C"
result_value = "≥99.0%"

[[record]]
structure_smiles_string = "CC(C)(C)[Si](F)(c1ccc(C(=O)NC[C@@H](NC(=O)[C@H](N)CNC(=O)CC[C@H](NC(=O)N[C@@H](CCC(=O)O)C(=O)O)C(=O)O)C(=O)N[C@H](CCCCNC(=O)CCC(=O)NCCC[C@@H](NC(=O)CC[C@H](NC(=O)N[C@@H](CCC(=O)O)C(=O)O)C(=O)O)C(=O)O)C(=O)O)cc1)C(C)(C)C"
result_value = "≥98.9%"

[[record]]
structure_smiles_string = "CC(C)(C)[Si](F)(c1ccc(C(=O)NC[C@@H](NC(=O)CNC(=O)[C@@H](CCC(=O)O)NC(=O)[C@H](N)CCC(=O)O)C(=O)N[C@H](CCCCNC(=O)CCC(=O)NCCC[C@@H](NC(=O)CC[C@H](NC(=O)N[C@@H](CCC(=O)O)C(=O)O)C(=O)O)C(=O)O)C(=O)O)cc1)C(C)(C)C"
result_value = "98.4%"


###

- Test System: human serum albumin (HSA) (Homo sapiens)
- Construct: purchased H13H-2433
- Assay Remarks: Binding to HSA on a Chiralpak HSA column
- Format: in vitro ADME
- Experimental Context: calibration with nine reference substances
Observable: Binding to HSA

[[record]]
structure_smiles_string = "CC(C)(C)[Si](F)(c1ccc(C(=O)NC[C@@H](NC(=O)[C@@H](CCCNC(N)=O)NC(=O)CC[C@H](NC(=O)N[C@@H](CCC(=O)O)C(=O)O)C(=O)O)C(=O)N[C@H](CCCCNC(=O)CCC(=O)NCCC[C@@H](NC(=O)CC[C@H](NC(=O)N[C@@H](CCC(=O)O)C(=O)O)C(=O)O)C(=O)O)C(=O)O)cc1)C(C)(C)C"
result_value = "≥98.9%"

[[record]]
structure_smiles_string = "CC(C)(C)[Si](F)(c1ccc(C(=O)NC[C@@H](NC(=O)[C@@H](Cc2ccccc2)NC(=O)CC[C@H](NC(=O)N[C@@H](CCC(=O)O)C(=O)O)C(=O)O)C(=O)N[C@H](CCCCNC(=O)CCC(=O)NCCC[C@@H](NC(=O)CC[C@H](NC(=O)N[C@@H](CCC(=O)O)C(=O)O)C(=O)O)C(=O)O)C(=O)O)cc1)C(C)(C)C"
result_value = "≥98.9%"

[[record]]
structure_smiles_string = "CC(C)(C)[Si](F)(c1ccc(C(=O)NC[C@@H](NC(=O)[C@@H](CN)NC(=O)CC[C@H](NC(=O)N[C@@H](CCC(=O)O)C(=O)O)C(=O)O)C(=O)N[C@H](CCCCNC(=O)CCC(=O)NCCC[C@@H](NC(=O)CC[C@H](NC(=O)N[C@@H](CCC(=O)O)C(=O)O)C(=O)O)C(=O)O)C(=O)O)cc1)C(C)(C)C"
result_value = "≥99.0%"

